I'd be grateful if you could share measured percent of parent (% signal of wild type) for these entries.
Study target: anti-GBB5-H9 scFv
Sequence (chain, as listed by the source, chain 1 of 2): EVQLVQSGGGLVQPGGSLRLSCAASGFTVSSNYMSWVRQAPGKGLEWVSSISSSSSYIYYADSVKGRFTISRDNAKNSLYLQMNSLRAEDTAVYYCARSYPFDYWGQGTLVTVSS
Sequence (chain, as listed by the source, chain 2 of 2): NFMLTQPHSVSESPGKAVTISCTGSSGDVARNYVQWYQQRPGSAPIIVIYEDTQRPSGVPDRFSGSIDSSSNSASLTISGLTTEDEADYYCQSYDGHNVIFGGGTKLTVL
Assay name: ELISA
Experimental setup: chain shown with the change; biotinylated peptides immobilized in streptavidin-coated microtiter plate wells; soluble scFv protein; parent: est. 100; read off a plot
Please reply with the number alone, leaving off any unit.

Task: Item GSGSALHDVELHQVAERV [GBB5 peptide (Guanine Nucleotide-Binding Protein Beta 5) K1A] : provide percent of parent (% signal of wild type)
Output: 74

Task: State, in one line, measured percent of parent (% signal of wild type) of GSGSKLHDVELHQAAERV [GBB5 peptide (Guanine Nucleotide-Binding Protein Beta 5) V14A]
Output: 55

Task: Determine its reported percent of parent (% signal of wild type): GSGSKLHAVELHQVAERV [GBB5 peptide (Guanine Nucleotide-Binding Protein Beta 5) D4A]
Output: 1.9

Task: Give a short answer stating reported percent of parent (% signal of wild type) for GSGSKLHDVELHQVAEAV [GBB5 peptide (Guanine Nucleotide-Binding Protein Beta 5) R13A] .
Output: 1.7

From: paper PMC4406585
